system: 379773-124-R-J2-PDC spheroid viability; test: Anticancer human tumor 379773-124-R-J2-PDC patient-derived endometrial carcinoma cell line growth inhibition [POLQ]; details: second compound 0.0316 µM; first compound 1 µM; spheroids with HUVEC and MSC; active = viability on the fitted dose curve at most 10% of control; inactive = the rest
One label from this list, please: active, inactive

Short answer needed: outcome of this test for CCc1cc2c(N3CCc4c(cc(Cn5ccnc5)cc4-c4cn(C)nc4C(F)(F)F)C3=O)ccnc2c(OC)n1 + Cc1cccc(N(C)C(=O)C2C(O)CCN2c2nc(C)cc(C(F)(F)F)c2C#N)c1 ? inactive

Short answer needed: outcome of this test for COc1cccc2c1C(=O)c1c(O)c3c(c(O)c1C2=O)CC(O)(C(=O)CO)CC3OC1CC(N)C(O)C(C)O1 (stereo not drawn) + Cc1cccc(N(C)C(=O)C2C(O)CCN2c2nc(C)cc(C(F)(F)F)c2C#N)c1 ? active

Short answer needed: outcome of this test for CC1COCCN1c1cc(C2(S(C)(=N)=O)CC2)nc(-c2ccnc3[nH]ccc23)n1 (stereo not drawn) + Nc1ccc(C#CCN(C(=O)Cc2ncc(C(F)(F)F)cc2C(F)(F)F)c2ccc(F)cc2)nn1 ? inactive

----------
test system: 379773-124-R-J2-PDC spheroid viability; experiment: Anticancer human tumor 379773-124-R-J2-PDC cell line growth inhibition [POLQ]; conditions: second compound 3.16 µM; first compound 0.0316 µM; hits give low values; spheroids with HUVEC and MSC;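 note: spheroids exposed to drugs for seven days before readout; percent viability relative to DMSO vehicle control taken as 100%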
measured-quantity: viability, T/C (%)
Please state the figure in %; there is no need to write the unit.

Lab note: measured viability, T/C of C=CCn1c(=O)c2cnc(Nc3ccc(N4CCN(C)CC4)cc3)nc2n1-c1cccc(C(C)(C)O)n1 + COC1C(OC(N)=O)C(O)C(Oc2ccc3c(O)c(NC(=O)c4ccc(O)c(CC=C(C)C)c4)c(=O)oc3c2C)OC1(C)C was 79.6

Lab note: measured viability, T/C of C#Cc1c(F)ccc2cc(O)cc(-c3ncc4c(N5CC6CCC(C5)N6)nc(OCC56CCCN5CC(F)C6)nc4c3F)c12 (centres undefined) + COC1C(OC(N)=O)C(O)C(Oc2ccc3c(O)c(NC(=O)c4ccc(O)c(CC=C(C)C)c4)c(=O)oc3c2C)OC1(C)C was 78.5

Lab note: measured viability, T/C of CC(C)n1c(=O)n(C)c2cnc3cc(F)c(-c4ccc(OCCCN5CCCCC5)nc4)cc3c21 + COC1C(OC(N)=O)C(O)C(Oc2ccc3c(O)c(NC(=O)c4ccc(O)c(CC=C(C)C)c4)c(=O)oc3c2C)OC1(C)C was 78

Lab note: measured viability, T/C of COc1ccc([C@@H](O)c2cc(-c3ncnc4cc(N5CCOCC5)ccc34)c(F)cc2Cl)nn1 + Nc1ccc(C#CCN(C(=O)Cc2ncc(C(F)(F)F)cc2C(F)(F)F)c2ccc(F)cc2)nn1 was 91.8

Lab note: measured viability, T/C of CCCS(=O)(=O)Nc1ccc(F)c(C(=O)c2c[nH]c3ncc(-c4ccc(Cl)cc4)cc23)c1F + Cc1cccc(N(C)C(=O)C2C(O)CCN2c2nc(C)cc(C(F)(F)F)c2C#N)c1 was 92

Lab note: measured viability, T/C of O=C(Nc1ccc(O)c(NS(=O)(=O)c2ccc(F)cc2)c1)c1ccc(-c2ccccc2)cc1 + COC1C(OC(N)=O)C(O)C(Oc2ccc3c(O)c(NC(=O)c4ccc(O)c(CC=C(C)C)c4)c(=O)oc3c2C)OC1(C)C was 79.2

Lab note: measured viability, T/C of CCc1cc2c(N3CCc4c(cc(Cn5ccnc5)cc4-c4cn(C)nc4C(F)(F)F)C3=O)cc(C)nc2c(OC)n1 + Nc1ccc(C#CCN(C(=O)Cc2ncc(C(F)(F)F)cc2C(F)(F)F)c2ccc(F)cc2)nn1 was 82.2

Lab note: measured viability, T/C of Nc1ccn(C2OC(CO)C(O)C2(F)F)c(=O)n1 (centres undefined) + Cc1cccc(N(C)C(=O)C2C(O)CCN2c2nc(C)cc(C(F)(F)F)c2C#N)c1 was 21.1

Lab note: measured viability, T/C of C=CCn1c(=O)c2cnc(Nc3ccc(N4CCN(C)CC4)cc3)nc2n1-c1cccc(C(C)(C)O)n1 + Nc1ccc(C#CCN(C(=O)Cc2ncc(C(F)(F)F)cc2C(F)(F)F)c2ccc(F)cc2)nn1 was 96.1

Lab note: measured viability, T/C of C=CC(=O)N1CCN(c2nc(=O)n(-c3c(C)ccnc3C(C)C)c3nc(-c4c(O)cccc4F)c(F)cc23)C(C)C1 (centres undefined) + Nc1ccc(C#CCN(C(=O)Cc2ncc(C(F)(F)F)cc2C(F)(F)F)c2ccc(F)cc2)nn1 was 91.9

Lab note: measured viability, T/C of COc1cc(C2c3cc4c(cc3C(OC3OC5COC(C)OC5C(O)C3O)C3COC(=O)C23)OCO4)cc(OC)c1O (centres undefined) + Nc1ccc(C#CCN(C(=O)Cc2ncc(C(F)(F)F)cc2C(F)(F)F)c2ccc(F)cc2)nn1 was 94.1

Lab note: measured viability, T/C of COc1cccc2c1C(=O)c1c(O)c3c(c(O)c1C2=O)CC(O)(C(=O)CO)CC3OC1CC(N)C(O)C(C)O1 (centres undefined) + Cc1cccc(N(C)C(=O)C2C(O)CCN2c2nc(C)cc(C(F)(F)F)c2C#N)c1 was 69.5

Lab note: measured viability, T/C of CC(C)n1c(=O)n(C)c2cnc3cc(F)c(-c4ccc(OCCCN5CCCCC5)nc4)cc3c21 + Cc1cccc(N(C)C(=O)C2C(O)CCN2c2nc(C)cc(C(F)(F)F)c2C#N)c1 was 73.7

Lab note: measured viability, T/C of CC(C)n1c(=O)n(C)c2cnc3cc(F)c(-c4ccc(OCCCN5CCCCC5)nc4)cc3c21 + Nc1ccc(C#CCN(C(=O)Cc2ncc(C(F)(F)F)cc2C(F)(F)F)c2ccc(F)cc2)nn1 was 92.6
